Tested on: rabbit mesenteric artery
Assay: calcium-antagonist activity, rabbit mesenteric artery test (antagonism of 3 mM Ca++ in Krebs depolarizer)
Conditions: Oryctolagus cuniculus, Ca++ submaximal concentration 3mM, read-out: IC₅₀
endpoint: pIC50
Convention used: pIC50 is expressed as -log10 of the molar concentration.

The reported pIC50 value, rabbit mesenteric artery, for CCOC(=O)C1=C(C)NC(CN(C)CC(C)(C)NCC(O)COc2ccccc2OC)=C(C(=O)OCC)C1c1cccc([N+](=O)[O-])c1 (stereo not shown) reads 7.33

###

Biological target: beta₂ lung receptor (Mus musculus, UniProt P18762)
Construct: Ki (nM) mouse lung beta₂ receptors; from tissue; host or cells: mouse lung
Sequence (P18762 whole entry): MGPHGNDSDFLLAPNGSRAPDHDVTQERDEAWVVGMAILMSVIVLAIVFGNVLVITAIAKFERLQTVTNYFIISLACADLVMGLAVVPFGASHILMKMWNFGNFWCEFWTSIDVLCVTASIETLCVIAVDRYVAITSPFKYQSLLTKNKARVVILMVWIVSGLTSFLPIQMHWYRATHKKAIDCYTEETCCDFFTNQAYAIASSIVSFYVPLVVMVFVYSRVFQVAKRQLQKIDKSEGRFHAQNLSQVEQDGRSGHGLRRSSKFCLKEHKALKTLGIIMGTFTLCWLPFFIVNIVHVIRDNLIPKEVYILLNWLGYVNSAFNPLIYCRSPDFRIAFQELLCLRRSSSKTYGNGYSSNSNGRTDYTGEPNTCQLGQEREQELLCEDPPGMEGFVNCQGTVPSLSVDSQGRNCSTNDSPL
Assay: binding test, beta2 lung receptors
endpoint: Ki (nM)
Numeric only. Scale: nM

>>> recorded_number("CC(C)NCC(O)COc1ccc(CC(N)=O)cc1 (stereo not drawn) [atenolol, reference compound]")
18000
>>> recorded_number("CCOC(=O)C1=C(C)NC(CN(C)CC(C)(C)NCC(O)COc2ccccc2OC)=C(C(=O)OCC)C1c1cccc([N+](=O)[O-])c1 (single isomer, unassigned) [diastereoisomer B]")
560

For record CCOC(=O)C1=C(C)NC(CN(C)CC(C)(C)NCC(O)COc2ccccc2OC)=C(C(=O)OCC)C1c1cccc([N+](=O)[O-])c1 (single isomer, unassigned) [diastereoisomer A] the listed Ki is 2050

###

Target: beta₁ heart receptors (Mus musculus, UniProt P34971)
Construct: from tissue; host or cells: mouse heart
Sequence (P34971 whole entry): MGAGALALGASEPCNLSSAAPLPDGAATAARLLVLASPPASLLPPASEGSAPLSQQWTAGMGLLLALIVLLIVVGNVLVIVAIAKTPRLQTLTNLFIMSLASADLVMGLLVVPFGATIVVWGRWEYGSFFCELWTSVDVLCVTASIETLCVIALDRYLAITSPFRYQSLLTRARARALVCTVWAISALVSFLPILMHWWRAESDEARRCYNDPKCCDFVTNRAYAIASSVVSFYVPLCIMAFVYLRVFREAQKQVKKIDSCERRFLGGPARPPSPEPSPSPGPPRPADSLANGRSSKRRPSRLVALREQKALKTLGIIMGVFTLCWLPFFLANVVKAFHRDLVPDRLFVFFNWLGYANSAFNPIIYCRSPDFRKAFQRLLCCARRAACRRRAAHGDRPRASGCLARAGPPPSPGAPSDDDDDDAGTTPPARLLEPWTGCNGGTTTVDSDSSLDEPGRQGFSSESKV
Test: binding test, beta1 heart receptors
endpoint: Ki (nM)
Your answer should be a plain number; it is taken to be in nM.

# example entries with known answers
>>> recorded_number("CC(C)NCC(O)COc1ccc(CC(N)=O)cc1 (stereo not drawn) [atenolol, reference compound]")
840
>>> recorded_number("CCOC(=O)C1=C(C)NC(CN(C)CC(C)(C)NCC(O)COc2ccccc2OC)=C(C(=O)OCC)C1c1cccc([N+](=O)[O-])c1 (single isomer, unassigned) [diastereoisomer A]")
600

We now examine a further molecule.
Field Ki (entry CCOC(=O)C1=C(C)NC(CN(C)CC(C)(C)NCC(O)COc2ccccc2OC)=C(C(=O)OCC)C1c1cccc([N+](=O)[O-])c1 (single isomer, unassigned) [diastereoisomer B] ) reads 165
